System: MIA PaCa-2
Conditions: OFD1 knockdown: no (no doxycycline)
What IC50 cell viability was measured for each of the following?
Give just the number in µM; leave the unit off.

Tell me its IC50 cell viability on MIA PaCa-2: N#CC[C@H](C1CCCC1)n1cc(-c2ncnc3[nH]ccc23)cn1 [S1378] 70.3

State IC50 cell viability (MIA PaCa-2) of Cn1cc(C2=C(c3cn(C4CCN(Cc5ccccn5)CC4)c4ccccc34)C(=O)NC2=O)c2ccccc21 [S1055] . 13.8

GET IC50 cell viability | system: MIA PaCa-2 | item: O=C(c1ccc(OCCN2CCCCC2)cc1)c1c(-c2ccc(O)cc2)sc2cc(O)ccc12 [S1227] 8.3

Identify measured IC50 cell viability obtained with MIA PaCa-2 for Cc1cn(-c2cc(NC(=O)c3ccc(C)c(Nc4nccc(-c5cccnc5)n4)c3)cc(C(F)(F)F)c2)cn1 [S1033] . 18.9

Enter IC50 cell viability (test system MIA PaCa-2) for CC[C@]1(O)C[C@H]2CN(CCc3c([nH]c4ccccc34)[C@@](C(=O)OC)(c3cc4c(cc3OC)N(C=O)[C@H]3[C@@](O)(C(=O)OC)[C@H](OC(C)=O)[C@]5(CC)C=CCN6CC[C@]43[C@@H]65)C2)C1 [S1241] 20.9

Fill in IC50 cell viability for C[C@]12CC[C@@H]3c4ccc(O)cc4CC[C@H]3[C@@H]1CC[C@@H]2O [S1709] tested with MIA PaCa-2. 18

Please respond with reported IC50 cell viability (system MIA PaCa-2) for CS(=O)(=O)c1ccc(C(=O)Nc2ccc(Cl)c(-c3ccccn3)c2)c(Cl)c1 [S1082] . 61.8

###

Kindly supply the reported IC50 cell viability values for the records listed here.
Tested on: MIA PaCa-2
Conditions: OFD1 knockdown: no (no doxycycline)
Please give a number only; it is taken to be in µM.

Supply measured IC50 cell viability of CN1CCN(c2nc(C3=C(c4c[nH]c5ccccc45)C(=O)NC3=O)c3ccccc3n2)CC1 [S2791] in your reply. 22.1

For the compound COc1cc2nccc(Oc3ccc(NC(=O)C4(C(=O)Nc5ccc(F)cc5)CC4)cc3)c2cc1OC [S4001] , give its reported IC50 cell viability. 5.3

Could you please provide reported IC50 cell viability for Cc1nc(-c2ccc(OCC(C)C)c(C#N)c2)sc1C(=O)O [S1547] ? Thanks! 12.4

Could you please provide reported IC50 cell viability for Nc1ncn([C@@H]2O[C@H](CO)[C@@H](O)[C@H]2O)c(=O)n1 [S1782] ? Thanks! 12.6

Determine from records and report IC50 cell viability for O=P1(NCCCl)OCCCN1CCCl (stereo not drawn) [S1302] 53

Retrieve IC50 cell viability measured for CC/C(=C(\c1ccccc1)c1ccc(OCCN(C)C)cc1)c1ccccc1 [S1972] and print it. 42

# return recorded IC50 cell viability for input O=C(CCCCCCC(=O)Nc1ccccc1)NO [S1047] 5.55

Using the record for CC(=O)O[C@H]1C(=O)[C@@]2(C)[C@H]([C@H](OC(=O)c3ccccc3)[C@]3(O)C[C@H](OC(=O)[C@H](O)[C@@H](NC(=O)c4ccccc4)c4ccccc4)C(C)=C1C3(C)C)[C@]1(OC(C)=O)CO[C@@H]1C[C@@H]2O [S1150] , state its measured IC50 cell viability. 19

Identify the reported IC50 cell viability for the following entry. CCc1c2c(nc3ccc(OC(=O)N4CCC(N5CCCCC5)CC4)cc13)-c1cc3c(c(=O)n1C2)COC(=O)[C@]3(O)CC [S2217] 43.2

Check the records and state IC50 cell viability for Cc1ccc(C(=O)Nc2ccc(CN3CCN(C)CC3)c(C(F)(F)F)c2)cc1C#Cc1cnc2cccnn12 [S1490] 3.75

Give a short answer stating reported IC50 cell viability for O=P1(N(CCCl)CCCl)NCCCO1 (stereo not drawn) [S2057] . 20.3

// Input: Cc1cccc(-c2nn3c(c2-c2ccnc4ccc(C(N)=O)cc24)CCC3)n1 [S2230] . Output its IC50 cell viability only. 3.61

Indicate its recorded IC50 cell viability; the compound in question is Nc1ccn([C@@H]2O[C@H](CO)[C@@H](O)C2(F)F)c(=O)n1 [S1714] 3.36

Determine its reported IC50 cell viability: O=C(Nc1c(Cl)cncc1Cl)c1ccc(OC(F)F)c(OCC2CC2)c1 [S2131] 22

Please report the measured IC50 cell viability for COc1cccc2c1C(=O)c1c(O)c3c(c(O)c1C2=O)C[C@@](O)(C(C)=O)C[C@@H]3O[C@H]1C[C@H](N)[C@H](O)[C@H](C)O1 [S3035] 3.36

Give the value of IC50 cell viability reported for the following: CC(C)c1cc(-c2n[nH]c(=O)n2-c2ccc3c(ccn3C)c2)c(O)cc1O [S1159] 2.42

Please look at this compound and report its IC50 cell viability: Cc1nc(=O)c2cc(CN(C)c3ccc(C(=O)N[C@@H](CCC(=O)O)C(=O)O)s3)ccc2[nH]1 [S1192] 15.8

Supply IC50 cell viability value. Item: Cc1c(C(=O)Nc2ccc(N3C[C@@H](C)O[C@@H](C)C3)nc2)cccc1-c1ccc(OC(F)(F)F)cc1 [S2151] 3.41

These data points were gathered from the supplement of paper PMC12325586.
